Test: M. tuberculosis H37Rv growth inhibitors, H37Rv strain (AID 1626);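 further: bacteria incubated seven days before Alamar blue readout; 0% = bacteria only wells and 100% = bacteria with antibiotic wells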
Conditions: active compounds read high, concentration not given here
Among all 220,000 compounds or so, about 2,000 (0.91%) were called active. Inconclusive results (about 2%) are left out. The list is a sample of the results. Results with a measured potency or affinity are listed apart.
Measured inhibition accompanies every entry in the list below.
// return numeric value only (unit: %, not printed)

- Compound: "Cc1ccc(NC(=S)N/N=C2/CCCCc3ccccc32)cc1"
  Unit: "%"
  inhibition: -0.29

INPUT: Name the recorded inhibition of the compound listed here: Cc1cc(C(=O)OCC(=O)N2CC(C)CC(C)C2)c(C)o1 (stereo unspecified)
OUTPUT: -6.8

INPUT: Give the value of inhibition reported for the following: COc1ccccc1NC(=O)C1=C(C)NC2=C(C(=O)CCC2)C1c1ccc2c(c1)OCO2 (stereo unspecified)
OUTPUT: -0.94

INPUT: Using known records, supply inhibition for `CC(=O)Nc1cn(-c2ccccc2)nc1-c1ccccc1`
OUTPUT: -0.45

INPUT: Output measured inhibition for this item: `CC1CCN(C(=O)COC(=O)c2cc(Cl)cc(Cl)c2N)CC1`
OUTPUT: -13.4

INPUT: Identify inhibition associated with the compound `Cc1ccc2c(c1)-c1[nH]c(=S)ncc1CS2`
OUTPUT: 3.39
